This listing pairs sequences with measured phosphorylation enrichment.
Test system: AncSZ
test_details: phosphorylation enrichment, bacterial display (enrichment ratio); higher = better substrate or ligand; peptides without Tyr show the background;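 further: 11-residue human phosphosite peptides and single-mutation variants displayed on the E. coli surface, counted by deep sequencing, each peptide's frequency after selection divided by its frequency in the unselected input library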;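 further: frequency after pTyr selection over input frequency; kinase dosed for 20-30% of maximal phosphorylation in three min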
Returns: the value as a bare number; no unit string appended.

A selection of reference data follows.
> print(dat)
                      sequence.string          attribute.measured  measured.result
1            HIAKVYRRDNP [HARS1_Y156]  phosphorylation enrichment            0.982
2     NTEGGYCCICA [CRELD1_Y328_R329C]  phosphorylation enrichment             1.02
3        DENRFYTRAAS [RPS19_Y54_W52R]  phosphorylation enrichment             1.01
4  FAKSVYWDNTL [NUP107_Y296_E298D_YF]  phosphorylation enrichment                1
5     CEHRGHLFLAI [TEK_Y897_Y897H_YF]  phosphorylation enrichment             1.02

Lab note: next sequence to report on.
Query string: Short answer please: phosphorylation enrichment, AncSZ, entry FTRNFYVQAVL [CYBA_Y88_R90Q_YF]
Result string: 0.993

----------
tested_on: Hck (UniProt P08631)
Sequence (P08631 whole entry, looked up): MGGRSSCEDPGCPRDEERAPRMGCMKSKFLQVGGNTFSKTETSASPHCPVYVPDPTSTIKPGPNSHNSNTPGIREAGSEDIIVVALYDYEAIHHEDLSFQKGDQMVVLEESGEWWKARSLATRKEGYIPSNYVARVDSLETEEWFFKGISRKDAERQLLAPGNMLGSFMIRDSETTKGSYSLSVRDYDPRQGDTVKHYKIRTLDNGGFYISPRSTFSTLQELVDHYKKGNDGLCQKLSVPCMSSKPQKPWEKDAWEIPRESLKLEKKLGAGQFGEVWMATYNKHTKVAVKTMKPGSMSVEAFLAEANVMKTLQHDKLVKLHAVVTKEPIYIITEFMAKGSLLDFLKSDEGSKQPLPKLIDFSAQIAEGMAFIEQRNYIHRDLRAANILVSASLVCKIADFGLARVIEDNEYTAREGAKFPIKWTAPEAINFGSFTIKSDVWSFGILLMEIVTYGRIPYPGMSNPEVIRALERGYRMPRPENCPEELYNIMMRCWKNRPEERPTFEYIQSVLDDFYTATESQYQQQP
test_details: phosphorylation enrichment, bacterial display (enrichment ratio); higher = better substrate or ligand; peptides without Tyr show the background
attribute_measured: phosphorylation enrichment
Returns: the value as a bare number; no unit string appended.

A selection of reference data follows.
> print(dat)
                       sequence.string  measured.result
1             HIAKVYRRDNP [HARS1_Y156]            0.592
2  YRNKPYISWPS [CDC42BPB_Y1638_S1633Y]            0.606

Lab note: next sequence to report on.
Query string: Report phosphorylation enrichment for SLQSEYVHFGG [CDC14A_Y591_YF] please.
Result string: 0.596

----------
tested_on: FGFR3 (UniProt P22607)
Sequence (P22607 whole entry, looked up): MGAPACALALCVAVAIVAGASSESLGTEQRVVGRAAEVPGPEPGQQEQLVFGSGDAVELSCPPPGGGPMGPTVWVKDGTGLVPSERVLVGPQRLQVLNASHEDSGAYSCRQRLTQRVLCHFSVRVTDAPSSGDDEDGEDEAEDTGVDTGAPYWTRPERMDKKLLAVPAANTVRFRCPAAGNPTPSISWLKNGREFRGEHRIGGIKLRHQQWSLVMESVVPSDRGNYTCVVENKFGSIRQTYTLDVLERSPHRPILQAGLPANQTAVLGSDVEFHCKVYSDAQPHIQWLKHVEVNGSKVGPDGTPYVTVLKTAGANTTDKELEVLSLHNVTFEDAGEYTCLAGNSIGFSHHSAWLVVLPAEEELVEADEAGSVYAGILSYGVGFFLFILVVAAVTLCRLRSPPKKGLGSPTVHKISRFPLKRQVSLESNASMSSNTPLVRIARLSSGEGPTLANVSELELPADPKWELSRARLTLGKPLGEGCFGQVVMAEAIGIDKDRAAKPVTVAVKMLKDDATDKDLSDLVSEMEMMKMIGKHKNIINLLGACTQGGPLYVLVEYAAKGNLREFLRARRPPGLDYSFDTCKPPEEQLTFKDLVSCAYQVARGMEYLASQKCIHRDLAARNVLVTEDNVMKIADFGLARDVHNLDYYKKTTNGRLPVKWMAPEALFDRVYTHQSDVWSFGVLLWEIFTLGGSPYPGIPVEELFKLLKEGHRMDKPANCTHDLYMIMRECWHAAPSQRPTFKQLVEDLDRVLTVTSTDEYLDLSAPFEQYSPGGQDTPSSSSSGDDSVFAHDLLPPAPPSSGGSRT
test_details: phosphorylation enrichment, bacterial display (enrichment ratio); higher = better substrate or ligand; peptides without Tyr show the background
attribute_measured: phosphorylation enrichment
Returns: the value as a bare number; no unit string appended.

A selection of reference data follows.
> print(dat)
                   sequence.string  measured.result
1        LADKPYTFEDF [FXN_Y118_YF]                2
2  LLASGYDSPIN [ABLIM1_Y638_R637G]             1.09

Query string: Report phosphorylation enrichment for LNEAVYTKMMT [G6PD_Y401_P396L] please.
Result string: 1.29

Query string: Would you kindly repeat that for ENAGYYFRVSA ?
Result string: 0.719

Query string: Would you kindly repeat that for HRGYLYLAIEY [TEK_Y899] ?
Result string: 0.602

Query string: Would you kindly repeat that for ETGEPCRLSPE [EIF4G1_Y311_Y311C] ?
Result string: 0.846

----------
tested_on: EPHB2 (UniProt P29323)
Sequence (P29323 whole entry, looked up): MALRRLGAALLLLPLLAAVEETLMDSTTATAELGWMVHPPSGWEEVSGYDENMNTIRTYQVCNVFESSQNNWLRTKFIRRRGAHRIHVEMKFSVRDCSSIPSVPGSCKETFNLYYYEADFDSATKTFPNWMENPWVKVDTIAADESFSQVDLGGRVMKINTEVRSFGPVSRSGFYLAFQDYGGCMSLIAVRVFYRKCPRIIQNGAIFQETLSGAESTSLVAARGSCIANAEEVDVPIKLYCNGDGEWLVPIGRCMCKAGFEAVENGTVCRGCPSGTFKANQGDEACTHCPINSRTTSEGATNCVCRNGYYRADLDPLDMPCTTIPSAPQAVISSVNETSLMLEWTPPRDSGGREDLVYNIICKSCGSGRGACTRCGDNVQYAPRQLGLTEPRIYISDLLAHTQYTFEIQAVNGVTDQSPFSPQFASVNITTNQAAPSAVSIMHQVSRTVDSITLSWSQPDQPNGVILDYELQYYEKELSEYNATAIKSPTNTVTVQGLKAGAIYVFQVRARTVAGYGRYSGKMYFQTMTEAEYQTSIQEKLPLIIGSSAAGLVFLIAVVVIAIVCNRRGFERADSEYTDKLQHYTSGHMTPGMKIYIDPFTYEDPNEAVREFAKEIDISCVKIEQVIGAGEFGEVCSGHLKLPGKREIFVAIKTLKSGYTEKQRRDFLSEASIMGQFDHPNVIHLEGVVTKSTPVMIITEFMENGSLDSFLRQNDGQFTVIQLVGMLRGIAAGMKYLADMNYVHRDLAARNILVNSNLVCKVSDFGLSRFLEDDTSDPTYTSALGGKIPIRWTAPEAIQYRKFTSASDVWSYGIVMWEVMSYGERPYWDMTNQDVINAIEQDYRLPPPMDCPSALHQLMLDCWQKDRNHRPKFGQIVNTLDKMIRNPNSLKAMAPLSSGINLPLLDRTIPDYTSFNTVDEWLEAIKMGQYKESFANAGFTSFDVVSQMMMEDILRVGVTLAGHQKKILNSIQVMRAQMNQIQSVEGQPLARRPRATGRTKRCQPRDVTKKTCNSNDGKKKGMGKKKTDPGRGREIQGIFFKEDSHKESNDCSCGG
test_details: phosphorylation enrichment, bacterial display (enrichment ratio); higher = better substrate or ligand; peptides without Tyr show the background
attribute_measured: phosphorylation enrichment
Returns: the value as a bare number; no unit string appended.

A selection of reference data follows.
> print(dat)
                  sequence.string               tested.on          attribute.measured  measured.result
1  QEIATCRRLLE [KRT14_Y415_Y415C]  EPHB2 (UniProt P29323)  phosphorylation enrichment            0.502
2    TGILLHGLASR [QARS1_Y57_Y57H]  EPHB2 (UniProt P29323)  phosphorylation enrichment            0.328
3  AEMKRYSESSS [RAI14_Y869_A870S]  EPHB2 (UniProt P29323)  phosphorylation enrichment            0.329

Lab note: next sequence to report on.
Query string: Short answer please: phosphorylation enrichment, EPHB2 (UniProt P29323), entry QQTYTYDSGIH [JUP_Y22]
Result string: 1.5

----------
This listing pairs sequences with measured phosphorylation enrichment.
tested_on: Jak2 (UniProt O60674)
Sequence (O60674 whole entry, looked up): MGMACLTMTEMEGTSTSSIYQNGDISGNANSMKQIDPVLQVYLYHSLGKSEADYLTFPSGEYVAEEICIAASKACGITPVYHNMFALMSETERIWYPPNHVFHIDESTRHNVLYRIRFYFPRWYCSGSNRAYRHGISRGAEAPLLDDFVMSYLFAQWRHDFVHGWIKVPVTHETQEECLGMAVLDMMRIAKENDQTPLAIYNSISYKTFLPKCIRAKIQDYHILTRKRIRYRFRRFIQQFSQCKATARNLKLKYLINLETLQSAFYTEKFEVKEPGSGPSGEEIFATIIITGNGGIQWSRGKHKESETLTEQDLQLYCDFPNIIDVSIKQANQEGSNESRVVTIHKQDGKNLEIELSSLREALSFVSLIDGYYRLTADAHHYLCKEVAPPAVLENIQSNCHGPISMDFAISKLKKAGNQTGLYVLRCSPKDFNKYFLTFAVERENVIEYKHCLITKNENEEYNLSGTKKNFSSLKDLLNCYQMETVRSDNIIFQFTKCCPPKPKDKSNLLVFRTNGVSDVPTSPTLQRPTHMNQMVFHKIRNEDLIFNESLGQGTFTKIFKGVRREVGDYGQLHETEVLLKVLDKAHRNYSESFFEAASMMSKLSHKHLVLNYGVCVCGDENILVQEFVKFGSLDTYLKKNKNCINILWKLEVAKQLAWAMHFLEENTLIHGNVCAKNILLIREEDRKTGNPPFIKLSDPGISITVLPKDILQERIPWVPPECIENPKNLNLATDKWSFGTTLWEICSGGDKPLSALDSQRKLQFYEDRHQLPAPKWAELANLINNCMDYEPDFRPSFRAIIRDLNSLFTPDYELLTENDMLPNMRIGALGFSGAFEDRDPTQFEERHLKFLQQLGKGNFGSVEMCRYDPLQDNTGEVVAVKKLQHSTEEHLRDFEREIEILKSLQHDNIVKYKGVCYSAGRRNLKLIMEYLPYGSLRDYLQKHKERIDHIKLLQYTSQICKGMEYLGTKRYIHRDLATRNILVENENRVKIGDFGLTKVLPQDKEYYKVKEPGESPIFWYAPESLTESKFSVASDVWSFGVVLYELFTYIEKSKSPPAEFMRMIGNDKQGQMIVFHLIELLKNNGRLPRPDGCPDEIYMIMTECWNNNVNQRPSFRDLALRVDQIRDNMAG
test_details: phosphorylation enrichment, bacterial display (enrichment ratio); higher = better substrate or ligand; peptides without Tyr show the background
Returns: the value as a bare number; no unit string appended.

> print(dat)
                  sequence.string              tested.on  measured.result
1  ISHVAYLVLGK [TRRAP_Y892_R893L]  Jak2 (UniProt O60674)            0.996
2    SWSTSYSGYRC [NKAPL_Y91_Y96C]  Jak2 (UniProt O60674)             0.98
3   QTLTDYDIRFF [CSNK2A1_Y131_YF]  Jak2 (UniProt O60674)            0.998

Lab note: next sequence to report on.
Query string: Report phosphorylation enrichment for EERKTYVNTTL [TEK_Y1102] please.
Result string: 0.983

----------
tested_on: FGFR3 (UniProt P22607)
test_details: phosphorylation enrichment, bacterial display (enrichment ratio); higher = better substrate or ligand; peptides without Tyr show the background
Decision: phosphorylation enrichment compared against 0.8; not below it gives YES, below it gives NO.

Study these solved cases before continuing.
> print(dat)
                   sequence.string  group.label
1        AFDNLYYWDQD [ERBB2_Y1221]          YES
2  TTICKYITPME [GUCY2C_Y839_S840I]           NO
3       QKMADYSNKLF [PDPR_Y104_YF]           NO
4    VIKDKYPQARY [APTX_Y209_K211Q]           NO

Query string: Check this sequence for phosphorylation enrichment at or above 0.8: GRRGQYVMLSE [TTC7A_Y396]
Result string: NO

Query string: Would you kindly repeat that for KLQKKYGPIFS [CYP17A1_Y60_YF] ?
Result string: NO

Query string: Would you kindly repeat that for DSFATYFRRVL [H2BW1_Y84] ?
Result string: NO

Query string: Would you kindly repeat that for SRDPFYEMLTA [CYTH1_Y382_A386T] ?
Result string: YES

Query string: Would you kindly repeat that for LTVVIYVLIGR [EPHA3_Y561] ?
Result string: YES

----------
tested_on: Fes (UniProt P07332)
Sequence (P07332 whole entry, looked up): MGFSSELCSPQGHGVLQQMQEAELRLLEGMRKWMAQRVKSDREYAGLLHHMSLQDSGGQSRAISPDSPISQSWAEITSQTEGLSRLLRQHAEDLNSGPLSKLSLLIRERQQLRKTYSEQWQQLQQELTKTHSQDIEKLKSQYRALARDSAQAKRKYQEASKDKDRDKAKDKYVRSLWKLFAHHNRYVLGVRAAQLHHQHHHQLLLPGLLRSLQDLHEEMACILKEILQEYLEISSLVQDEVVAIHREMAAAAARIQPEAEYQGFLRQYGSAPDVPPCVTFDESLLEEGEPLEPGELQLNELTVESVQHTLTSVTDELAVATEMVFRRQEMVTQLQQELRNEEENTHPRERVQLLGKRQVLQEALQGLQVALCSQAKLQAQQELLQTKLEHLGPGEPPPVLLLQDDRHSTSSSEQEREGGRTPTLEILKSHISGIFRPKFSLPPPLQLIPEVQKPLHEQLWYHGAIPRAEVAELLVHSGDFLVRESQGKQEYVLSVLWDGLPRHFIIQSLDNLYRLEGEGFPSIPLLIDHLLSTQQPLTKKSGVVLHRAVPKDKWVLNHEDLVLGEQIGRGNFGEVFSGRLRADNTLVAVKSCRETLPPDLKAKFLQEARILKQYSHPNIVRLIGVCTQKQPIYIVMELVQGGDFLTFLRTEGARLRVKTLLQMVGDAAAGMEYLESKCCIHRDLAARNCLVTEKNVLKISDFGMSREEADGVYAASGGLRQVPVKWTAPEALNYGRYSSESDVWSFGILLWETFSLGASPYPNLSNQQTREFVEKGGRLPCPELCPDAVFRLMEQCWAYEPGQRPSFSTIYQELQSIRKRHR
test_details: phosphorylation enrichment, bacterial display (enrichment ratio); higher = better substrate or ligand; peptides without Tyr show the background
Decision: phosphorylation enrichment compared against 0.9; not below it gives 1.0, below it gives 0.0.

> print(dat)
                     sequence.string  group.label
 1     LKVDVYRRSHK [FUT3_Y222_G223R]          1.0
 2           MDDPRYGMCPL [ZNF100_Y6]          1.0
 3        LFNQDYPIHSV [GATM_Y227_YF]          1.0
 4  VFFDLYGGEKF [PTPN11_Y66_D61V_YF]          1.0
 5     CTTIHYNYMRN [TP53_Y234_C238R]          0.0
 6     VIVRMYDYHVL [RPF2_Y109_G106V]          1.0
 7     SVVVCYEPPEV [TP53_Y220_P219C]          1.0
 8  SKDQICPMKLK [RANBP17_Y823_Y823C]          0.0
 9          IDAICYYRMEN [NPHS2_Y194]          1.0
10          EAVKNYTDKRG [PBRM1_Y672]          0.0

Query string: Check this sequence for phosphorylation enrichment at or above 0.9: QAEEWYFGKMG [YES1_Y159]
Result string: 1.0

Query string: Would you kindly repeat that for EGTGHYLCNAC [GATA5_Y208_D203E] ?
Result string: 0.0

Query string: Would you kindly repeat that for HLWRIYFDITD [MMP27_Y307_YF] ?
Result string: 1.0

Query string: Would you kindly repeat that for NGTVSYAIVAG [CDH23_Y1672_T1671S] ?
Result string: 1.0

Query string: Would you kindly repeat that for QEIATYRRQLE [KRT14_Y415_L418Q] ?
Result string: 1.0

Query string: Would you kindly repeat that for KLLLKYSFHDV [RNF213_Y4141] ?
Result string: 1.0

Query string: Would you kindly repeat that for ISGGGYRACPA [FGB_Y71_R74C] ?
Result string: 0.0

Query string: Would you kindly repeat that for IVRSLYEDQED [VHL_Y185_L188Q] ?
Result string: 1.0

Query string: Would you kindly repeat that for KRISCYEARFQ [PFKFB3_Y194_S197R_YF] ?
Result string: 0.0

Query string: Would you kindly repeat that for SVTCTYSPALN [TP53_Y126] ?
Result string: 1.0

Query string: Would you kindly repeat that for LKFAIYFEARE [LAMA2_Y1258_YF] ?
Result string: 1.0

Query string: Would you kindly repeat that for YFCRWYRNRKS [EREG_Y144] ?
Result string: 0.0

Query string: Would you kindly repeat that for GSIQQYIYKQE [PRG4_Y1271] ?
Result string: 0.0

Query string: Would you kindly repeat that for LTEHGYSFTTT [ACTB_Y198_R196H] ?
Result string: 1.0

Query string: Would you kindly repeat that for ADLVQYFMEHH [PTPN11_Y80_E76D_YF] ?
Result string: 1.0
